FYI, the data here is from paper PMC11601558.

Measured on: human SLC6A19 (Homo sapiens, UniProt Q695T7)
Construct: expressed in transfected cells
Sequence (Q695T7 whole entry): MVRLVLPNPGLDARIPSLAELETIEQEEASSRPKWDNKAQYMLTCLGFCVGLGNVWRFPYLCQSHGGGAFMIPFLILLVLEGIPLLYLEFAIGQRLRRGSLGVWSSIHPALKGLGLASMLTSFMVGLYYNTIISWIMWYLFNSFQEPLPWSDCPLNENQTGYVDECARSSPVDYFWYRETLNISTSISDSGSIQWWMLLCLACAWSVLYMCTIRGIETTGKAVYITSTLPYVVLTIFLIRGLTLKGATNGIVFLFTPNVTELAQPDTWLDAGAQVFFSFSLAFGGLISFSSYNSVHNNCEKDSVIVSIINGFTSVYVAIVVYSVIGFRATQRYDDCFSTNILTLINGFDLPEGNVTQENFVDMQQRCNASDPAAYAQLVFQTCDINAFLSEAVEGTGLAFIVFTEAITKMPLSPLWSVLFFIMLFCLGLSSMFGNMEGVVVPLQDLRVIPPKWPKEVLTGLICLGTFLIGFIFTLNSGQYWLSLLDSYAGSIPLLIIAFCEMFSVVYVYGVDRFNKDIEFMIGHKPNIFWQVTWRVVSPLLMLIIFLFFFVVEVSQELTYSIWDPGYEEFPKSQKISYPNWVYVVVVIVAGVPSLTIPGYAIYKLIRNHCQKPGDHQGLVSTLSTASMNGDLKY
Sequence (Q9HBJ8 15-222 partner): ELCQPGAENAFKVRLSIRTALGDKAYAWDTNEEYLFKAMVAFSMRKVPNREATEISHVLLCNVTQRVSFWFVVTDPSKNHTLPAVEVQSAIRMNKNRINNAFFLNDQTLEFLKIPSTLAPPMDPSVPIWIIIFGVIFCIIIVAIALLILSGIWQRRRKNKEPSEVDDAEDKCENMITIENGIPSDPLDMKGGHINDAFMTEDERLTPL
Assay explanation: Isoleucine transport assay, Flp-In T-REx 293 cells coexpressing human SLC6A19 and TMEM27
Assay type: cell-based
Condition summary: geometric mean n = 4; 95% CI 38–57 nM; read-out: potency (IC50) against human SLC6A19, isoleucine transport assay

Compound | IC50 (nM)
NC(=O)N1CCC[C@@H](N(C(=O)NCc2ccc(OC(F)(F)F)cc2F)C2CC2)C1 [JNT-517] | 47

----------
Assay explanation: JNT-517 plasma pharmacokinetics in healthy volunteers
Assay type: in vivo, human
Condition summary: human, plasma, oral; SAD 100 mg; min, max 0.5, 1.5; read-out: Median Tmax
Recorded endpoint: Tmax (h)

Input smiles | Readout value
NC(=O)N1CCC[C@@H](N(C(=O)NCc2ccc(OC(F)(F)F)cc2F)C2CC2)C1 | 1
